All figures here come from paper PMC11076555.

Biological target: T1, Human Dishevelled2 PDZ domain (human, UniProt O14641 261-354, Monolith Red-maleimide 2nd generation cysteine-reactive fluorescent label (in the MST experiments))
T1 construct: Dishevelled2 (Dvl2), human, PDZ domain; Addgene plasmid 38876 changed by a stop codon after C354 to remove the peptide fused at the C-terminus of the PDZ; Used unlabelled in the GEF assays and labelled in MST; also called Dvl2^PDZ; hDvl2^PDZ; source: E. coli Rosetta (DE3), purified (Ni-NTA, TEV cleavage, second Ni-NTA, gel filtration); not shown: His6, N-terminal, cleaved
T1 sequence (looked up): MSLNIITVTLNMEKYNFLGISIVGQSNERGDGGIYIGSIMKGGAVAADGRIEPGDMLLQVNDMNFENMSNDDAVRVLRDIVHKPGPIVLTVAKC
Test: MST; 50 nM fluorescently labelled Dvl2^PDZ (Red-maleimide, cysteine reactive); peptides serially diluted 1:2 16 times from about 3.4 mM, hWGEF (330-581) 138-0.0042 uM; 25 C, 30 min incubation; 10 mM Tris-HCl pH 8, 150 mM NaCl, 2 mM DTT, 5% glycerol, 0.05% Tween20; Monolith NT.115; triplicates
Conditions: both partners purified
READOUT_NAME: pKd
# reply with the number alone; pKd is -log10 of concentration in mol/L

Query: Provide one value: measured pKd of EIVLWSDIP (engineered peptide, closest homologue of WGEF^pep; structure with Dvl2^PDZ in PDB 3CC0; also called engineered internal peptide N3; source: synthetic peptide, bought: Sai Biotech) [N3^pep]
Response: 4.27

Query: # return recorded pKd for input GSTFSLWADIP (WGEF (Arhgef19), human residues 349-359 with Q8A; numbers count on: the peptide (1-11); Q8 is Q356 of human WGEF (from the printed limits); source: synthetic peptide, bought: Sai Biotech) [WGEF^pepQ8A]
Response: 5.07

Query: Identify the reported pKd for the following entry. GSTFSLWQDIP (also called WGEF IPM peptide; source: synthetic peptide, bought: Sai Biotech) [WGEF^pep (internal PDZ binding motif peptide of WGEF)]
Response: 4.35

Query: Provide measured pKd value, entry: GSTFSAWQDIP (WGEF (Arhgef19), human residues 349-359 with L6A; numbers count on: the peptide (1-11); L6 is L354 of human WGEF and L407 of Xenopus WGEF (from the printed limits); source: synthetic peptide, bought: Sai Biotech) [WGEF^pepL6A]
Response: 2.62

Query: Recall and state the measured pKd for GSTFSLWQDAP (WGEF (Arhgef19), human residues 349-359 with I10A; numbers count on: the peptide (1-11); I10 is I358 of human WGEF (from the printed limits); also called Ile at P1 to Ala; source: synthetic peptide, bought: Sai Biotech) [WGEF^pepI10A] .
Response: 4.25
